assay: Partition coefficient (logP); type: physicochemical; conditions: octanol/water; read-out: logP
# label = met if logP >= 4 else not met

Request: Does the molecule CCC(Oc1c(C)cccc1C)C1=NCCN1 (stereo unspecified) have recorded logP that is 4 or more?
Result: met

Request: Does the molecule Cc1cccc(C)c1OC(C)(C)C1=NCCN1 have recorded logP that is 4 or more?
Result: met

Request: Does the molecule Cc1c(N)cccc1OC(CCO)C1=NCCN1 (stereo unspecified) have recorded logP that is 4 or more?
Result: not met

Request: Does the molecule Cc1ccc(N)c(C)c1OC(C)C1=NCCN1 (stereo unspecified) have recorded logP that is 4 or more?
Result: not met

Now turn to the next molecule.
Request: Does the molecule CC(Oc1cccc2[nH]ccc12)C1=NCCN1 (stereo unspecified) have recorded logP that is 4 or more?
Result: not met

---

organism: Oryctolagus cuniculus; assay: Inhibition of increase in potential difference caused by diarrhea inducing secretogogues determined in rabbit; ++ = active; type: functional, organism-based
The source made the active and inactive calls. The rule behind the calls is not given here.
Assay Metric: Activity

// below: answered compounds
# compound Cc1ccc(N)c(C)c1OC(C)C1=NCCN1 (stereo unspecified) ; its Activity = Active

# compound Cc1c(N)cccc1OC(C)C1=NCCN1 (stereo unspecified) ; its Activity = Active

# compound CC(Oc1cccc2[nH]ccc12)C1=NCCN1 (stereo unspecified) ; its Activity = Active

# compound Cc1cccc(C)c1OC(C)C1=NCCN1 (stereo unspecified) ; its Activity = Active

# compound CCc1cccc(CC)c1OC(C)C1=NCCN1 (stereo unspecified) ; its Activity = Active

// below: Activity requested for another compound
# compound Cc1cccc(C)c1OC(C)(C)C1=NCCN1 ; its Activity = Active

---

assay: Partition coefficient (logP); format: physicochemical; details: octanol/water; read-out: logP
Assay Metric: logP
Answer with a bare number; do not write a unit.

# compound CC(=O)Nc1cccc(OC(C)C2=NCCN2)c1C (stereo unspecified) ; its logP = 2.43

# compound CCOC(=O)Nc1ccc(C)c(OC(C)C2=NCCN2)c1C (stereo unspecified) ; its logP = 4.4

# compound Cc1c(OC(C)C2=NCCN2)cccc1N(C)C (stereo unspecified) ; its logP = 4

# compound CCC(Oc1cccc(N)c1C)C1=NCCN1 (stereo unspecified) ; its logP = 3.19

# compound CCc1ccccc1OC(C)C1=NCCN1 (stereo unspecified) ; its logP = 4.23

# compound Cc1cc(C)c(OC(C)C2=NCCN2)cc1N (stereo unspecified) ; its logP = 3.01

# compound CC(Oc1cccc2ccccc12)C1=NCCN1 (stereo unspecified) ; its logP = 4.35

# compound Cc1cc(C)c(OC(C)C2=NCCN2)c(C)c1 (stereo unspecified) ; its logP = 5

Others:
# compound Cc1ccc(OC(C)C2=NCCN2)c(C)c1 (stereo unspecified) ; its logP = 4.35

# compound Cc1c(N)cccc1OC(C)C1=NCCN1 (stereo in doubt; 32) ; its logP = 2

# compound Cc1cccc(C)c1OC(C)C1=NCCN1 (stereo unspecified) ; its logP = 4.39

# compound CCc1cccc(CC)c1OC(C)C1=NCCN1 (stereo unspecified) ; its logP = 5.41

# compound CCOC(=O)Nc1cccc(OC(C)C2=NCCN2)c1C (stereo unspecified) ; its logP = 3.27

# compound Cc1cccc(C)c1OC(CCO)C1=NCCN1 (stereo unspecified) ; its logP = 2.89

# compound Cc1c(O)cccc1OC(C)C1=NCCN1 (stereo unspecified) ; its logP = 3.21

# compound Cc1ccc2[nH]ccc2c1OC(C)C1=NCCN1.ClCCl (stereo unspecified) ; its logP = 3.77
